Tested On: HIV-1 NL4-3 CA monomer (Human immunodeficiency virus type 1 group M subtype B)
Property: Kd (µM)
One number for each entry, in µM.

Data request, read-out Kd, for COc1ccc(N(C)C(=O)[C@H](Cc2cc(F)cc(F)c2)NC(=O)CN(Cc2ccc(F)cc2)C(=O)Cn2nc(C(F)(F)F)c3c2CCCC3)cc1 [I-19] 13.3

====

Test system: MT-4 cells
Experimental Protocol: in vitro
Run Parameters: human, 5 days
Property: CC50

Answered cases to consult:
>>> df
                                smiles_code   tested_on  property  recorded_measurement
0  COc1ccc(N(C)C(=O)[C@H](Cc2cc(F)cc(F)c2)NC(=O)CN(Cc2ccccc2)C(=O)Cc2c(C)[nH]c3ccccc23)cc1  MT-4 cells      CC50               28.6 µM
1  COc1ccc(N(C)C(=O)[C@H](Cc2cc(F)cc(F)c2)NC(=O)CN(Cc2ccccc2)C(=O)Cc2ccc3ccccc3c2)cc1  MT-4 cells      CC50                176 µM
2  COc1ccc(N(C)C(=O)[C@H](Cc2cc(F)cc(F)c2)NC(=O)CN(Cc2ccc(F)cc2)C(=O)Cc2c[nH]c3ccc(Br)cc23)cc1  MT-4 cells      CC50               17.8 µM
3  COc1ccc(N(C)C(=O)[C@H](Cc2cc(F)cc(F)c2)NC(=O)CN(C(=O)Cc2ccc(B3OC(C)(C)C(C)(C)O3)cc2)C2CC2)cc1  MT-4 cells      CC50                 89 µM
4  COc1ccc(N(C)C(=O)[C@H](Cc2cc(F)cc(F)c2)NC(=O)CN(Cc2ccc(C#N)cc2)C(=O)Cc2ccc(B3OC(C)(C)C(C)(C)O3)cc2)cc1  MT-4 cells      CC50               52.4 µM

Data request, read-out CC50, for "COc1ccc(N(C)C(=O)[C@H](Cc2cc(F)cc(F)c2)NC(=O)CN(Cc2ccc(F)cc2)C(=O)Cc2ccc(B3OC(C)(C)C(C)(C)O3)cc2)cc1" 65.4 µM

====

System: HIV-1
Experimental Protocol: Anti-HIV-1 activity in MT-4 cells (MTT method)
Format: cell-based
Run Parameters: Human immunodeficiency virus 1, MT4; MT-4 cells, 50% protection against HIV-induced cytopathicity, MTT method
Consider the following compounds; for each one, report its EC50.
Give bare numbers, in µM.

Answered cases to consult:
                                   compound  unit_string  recorded_measurement
0  COc1ccc(N(C)C(=O)[C@H](Cc2cc(F)cc(F)c2)NC(=O)CN(Cc2ccc(F)cc2)C(=O)Cc2c(C)[nH]c3ccccc23)cc1           µM                  2.79
1  COc1ccc(N(C)C(=O)[C@H](Cc2cc(F)cc(F)c2)NC(=O)CN(Cc2ccc(C#N)cc2)C(=O)Cc2ccc(B3OC(C)(C)C(C)(C)O3)cc2)cc1           µM                  17.7
2  COc1ccc(N(C)C(=O)[C@H](Cc2cc(F)cc(F)c2)NC(=O)CN(Cc2ccccc2)C(=O)Cc2c(C)[nH]c3ccccc23)cc1           µM                  2.77
3  COc1ccc(N(C)C(=O)[C@H](Cc2cc(F)cc(F)c2)NC(=O)CN(Cc2ccc(F)cc2)C(=O)Cn2nc(C(F)(F)F)c3c2CCCC3)cc1           µM                  2.53
4  Cc1[nH]c2ccccc2c1CC(=O)NC(Cc1ccccc1)C(=O)N(C)c1ccccc1 (stereo not shown) [PF-74, reference compound]           µM                  0.26
5  COc1ccc(N(C)C(=O)[C@H](Cc2cc(F)cc(F)c2)NC(=O)CN(Cc2ccc(F)cc2)C(=O)Cc2c[nH]c3ccc(Br)cc23)cc1           µM                  2.93
6  COc1ccc(N(C)C(=O)[C@H](Cc2cc(F)cc(F)c2)NC(=O)CN(Cc2ccc(F)cc2)C(=O)Cc2ccc(B3OC(C)(C)C(C)(C)O3)cc2)cc1           µM                  11.7

What measured EC50 is associated with "COc1ccc(N(C)C(=O)[C@H](Cc2cc(F)cc(F)c2)NC(=O)CN(Cc2ccc(F)cc2)C(=O)Cc2ccc(B(O)O)cc2)cc1" on HIV-1? 4.33

====

Experimental Protocol: Cytotoxicity in mock-infected MT-4 cells (MTT method)
Run Parameters: human, mock-infected (uninfected) MT-4 cells, CC50, uninfected MT-4 cells, viability reduced by 50%, MTT method
Property: CC50 at 5 days

Data request, read-out CC50 at 5 days, for Cc1ccnc2c1NC(=O)c1cccnc1N2C1CC1 [NVP, nevirapine, reference compound] > 15.2 µM

====

Tested On: HIV-1 NL4-3 CA hexamer (Human immunodeficiency virus type 1 group M subtype B, UniProt P12493, A146C/E177C/M317A/W316A)
Experimental Protocol: SPR binding to disulfide-stabilized NL4-3 CA hexamer
Run Parameters: 25 °C, at least 3 replicates
Property: Kd (µM)
One number for each entry, in µM.

Data request, read-out Kd, for COc1ccc(N(C)C(=O)[C@H](Cc2cc(F)cc(F)c2)NC(=O)CN(Cc2ccc(F)cc2)C(=O)Cn2nc(C(F)(F)F)c3c2CCCC3)cc1 [I-19] 36.9

====

Consider the following compounds; for each one, report its pEC50.
Tested on: HIV-1
Experimental Protocol: Anti-HIV-1 activity in MT-4 cells (MTT method)
Format: cell-based
Run Parameters: Human immunodeficiency virus 1, MT4; MT-4 cells, 50% protection against HIV-induced cytopathicity, MTT method
Give bare numbers, as −log10 of the molar value.

>>> print(df.to_string())
                                smiles_code  recorded_measurement
0  COc1ccc(N(C)C(=O)[C@H](Cc2cc(F)cc(F)c2)NC(=O)CN(C(=O)Cc2ccc(B3OC(C)(C)C(C)(C)O3)cc2)C2CC2)cc1                  5.29

Next, consider the following compound.
Data request, read-out pEC50, for "COc1ccc(N(C)C(=O)[C@H](Cc2cc(F)cc(F)c2)NC(=O)CN(CC2CCCCC2)C(=O)Cn2nc(C(F)(F)F)cc2C)cc1" 4.52

====

Tested on: MT-4 cells
Experimental Protocol: in vitro
Run Parameters: human, 5 days
Consider the following molecules; for each one, report its CC50.
Give bare numbers, in µM.

                                smiles_code  property  recorded_measurement
0  COc1ccc(N(C)C(=O)[C@H](Cc2cc(F)cc(F)c2)NC(=O)CN(CC2CCCCC2)C(=O)Cn2nc(C(F)(F)F)cc2C)cc1      CC50                  45.7

Take each entry in turn and give its CC50.
1. COc1ccc(N(C)C(=O)[C@H](Cc2cc(F)cc(F)c2)NC(=O)CN(Cc2ccc(F)cc2)C(=O)Cc2ccc(B(O)O)cc2)cc1
2. COc1ccc(N(C)C(=O)[C@H](Cc2cc(F)cc(F)c2)NC(=O)CN(Cc2ccc(F)cc2)C(=O)Cc2c(C)[nH]c3ccccc23)cc1
3. COc1ccc(N(C)C(=O)[C@H](Cc2cc(F)cc(F)c2)NC(=O)CN(CC2CCCCC2)C(=O)Cc2c[nH]c3ccc(Br)cc23)cc1

18.9
22.6
17.6

====

Tested on: MT-4 cells
Experimental Protocol: Cytotoxicity in mock-infected MT-4 cells (MTT method)
Run Parameters: uninfected MT-4 cells, viability reduced by 50%, MTT method
Property: CC50

Data request, read-out CC50, for Cc1ccnc2c1NC(=O)c1cccnc1N2C1CC1 [NVP, nevirapine, reference compound] > 15 µM

====

Tested on: HIV-1
Experimental Protocol: Anti-HIV-1 activity in MT-4 cells (MTT method)
Format: cell-based
Run Parameters: Human immunodeficiency virus 1, MT4; MT-4 cells, 50% protection against HIV-induced cytopathicity, MTT method
Consider the following compounds; for each one, report its EC50.

                                   compound  recorded_measurement
0  COc1ccc(N(C)C(=O)[C@H](Cc2cc(F)cc(F)c2)NC(=O)CN(Cc2ccc(C#N)cc2)C(=O)Cc2ccc3ccccc3c2)cc1 [I-13]              > 189 µM
1  COc1ccc(N(C)C(=O)[C@H](Cc2cc(F)cc(F)c2)NC(=O)CN(Cc2ccc(F)cc2)C(=O)Cc2cccc3ccccc23)cc1 [I-8]              > 191 µM
2  COc1ccc(N(C)C(=O)[C@H](Cc2cc(F)cc(F)c2)NC(=O)CN(Cc2ccccc2)C(=O)Cc2ccc3ccccc3c2)cc1 [I-22]              > 176 µM
3  COc1ccc(N(C)C(=O)[C@H](Cc2cc(F)cc(F)c2)NC(=O)CN(Cc2ccc(C#N)cc2)C(=O)Cc2cccc3ccccc23)cc1 [I-14]              > 189 µM

Next, consider the following compound.
Data request, read-out EC50, for COc1ccc(N(C)C(=O)[C@H](Cc2cc(F)cc(F)c2)NC(=O)CN(CC2CCCCC2)C(=O)Cc2c[nH]c3ccc(Br)cc23)cc1 [I-10] > 17.6 µM
